The molecules listed here are annotated with their Reduction of ROS level in 6-OHDA-treated cells.
tested on: ROS formation in Neuro2a cells treated with 6-OHDA; assay: ROS level analysis in 6-OHDA-treated cells; format: cell-based; conditions: 10 µM; 6-OHDA 50 µM, 30 min
ENDPOINT_NAME: Reduction of ROS level in 6-OHDA-treated cells (%)

MOLECULE: CC(=O)NCC(=O)c1c[nH]c2cc(O)ccc12 [Compound 1, 6-hydroxy-N-acetyl-β-oxotryptamine]
MEASURED_ON: ROS formation in Neuro2a cells treated with 6-OHDA
RESULT_NUMBER: 18

MOLECULE: COc1c(-c2ccccc2)cc(OC)c2c1oc1cc(O)c(O)cc12 [Compound 5, 4″-dehydroxycandidusin A]
MEASURED_ON: ROS formation in Neuro2a cells treated with 6-OHDA
RESULT_NUMBER: 34

MOLECULE: CN1C(=O)C(Cc2c(O)cccc2O)NC(=O)C1Cc1ccccc1 (centres unmarked) [Compound 6, mactanamide]
MEASURED_ON: ROS formation in Neuro2a cells treated with 6-OHDA
RESULT_NUMBER: 30

MOLECULE: Cc1cc(O)c(C)c(O)c1C(=O)O
MEASURED_ON: ROS formation in Neuro2a cells treated with 6-OHDA
RESULT_NUMBER: 30

MOLECULE: COc1cc(O)c(C)c2c1COC(C)C2 (centres unmarked)
MEASURED_ON: ROS formation in Neuro2a cells treated with 6-OHDA
RESULT_NUMBER: 45
